# Test system: inflammed rat air pouches (serum-treated zymozan)
# experimental protocol: Rat air pouch assay
# Type: in vivo, rats (Dark Agouti)
# details: 0.5 ml of 100 μM into pouch, 4 h
For each entry below, report its Polymorphs in tissue sections (per 100 squares) value.
Give bare numbers, in per 100 squares.

Reference set, count: 3
[[record]]
compound = "Cc1c(O)ccc2c1OCC(c1ccc(O)cc1)C2O (single isomer, unassigned) [Compound 3a]"
result_value = 17.9

[[record]]
compound = "O=C1c2ccc(O)c(Br)c2OCC1c1ccc(O)cc1 (stereo not shown) [Compound 1]"
result_value = 31.0

[[record]]
compound = "Oc1ccc(C2COc3c(ccc(O)c3O)C2O)cc1 (stereo not shown) [Compound 2]"
result_value = 14.3


Then this compound:
Write down the reported Polymorphs in tissue sections (per 100 squares) of O=C1c2cc(Cl)c(O)cc2OCC1c1ccc(O)cc1 (stereo not shown) [Compound 4] , test system: inflammed rat air pouches (serum-treated zymozan).
23.4

From: patent US20090131513A1
